Could you please report measured pIC50 for the items listed next?
Measurement target: His6-ERα298-554 WT (ERα ligand-binding domain) (Homo sapiens (Human))
Sequence (P03372 298-554): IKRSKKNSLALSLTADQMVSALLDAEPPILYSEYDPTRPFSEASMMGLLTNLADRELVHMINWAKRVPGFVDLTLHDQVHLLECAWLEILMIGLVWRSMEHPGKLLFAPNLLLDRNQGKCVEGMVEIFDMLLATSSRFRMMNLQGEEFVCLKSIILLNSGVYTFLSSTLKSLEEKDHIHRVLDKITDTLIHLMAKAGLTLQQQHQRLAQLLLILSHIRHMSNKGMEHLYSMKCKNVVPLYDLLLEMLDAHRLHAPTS
Protocol notes: Test A: biochemical antagonist activity, LanthaScreen TR-FRET ERα coactivator assay, WT
Conditions used: asterisk (*): protocol using 10 nM estradiol; read-out: Antagonism WT IC50
One number for each entry, as −log10 of the molar value.

> print(dat)
                                   compound  recorded.number
1  Oc1ccc2c(c1)OCC(c1ccc(Cl)cc1Cl)=C2c1ccc(O[C@H]2CCN(CCCF)C2)cc1 [Example 81]             6.28
2  Oc1ccc2c(c1)SCC(c1ccc(OCF)cc1)=C2c1ccc(O[C@H]2CCN(CCCF)C2)cc1 [Example 60]             8.05
3  Cc1ccc(C2=C(c3ccc(O[C@H]4CCN(CCCF)C4)cc3)c3ccc(C(=O)O)cc3SCC2)c(F)c1 [Example 210]             6.99
4  CCOc1ccc(C2=C(c3ccc(O[C@H]4CCN(CCCF)C4)nc3)c3ccc(O)cc3SCC2)c(F)n1 [Example 208]             9.22
5  Oc1ccc2c(c1)CCCC(c1ccc(Cl)cc1Cl)=C2c1cnc(O[C@H]2CCN(CCCF)C2)nc1 [Example 238]             8.52
6  CC(C)(C)OC(=O)Nc1ccc(C2=C(c3ccc(O[C@H]4CCN(CCCF)C4)cc3)c3ccc(O)cc3SC2)c(F)n1 [Example 65]             5.91
7  Oc1ccc2c(c1)SCCC(c1ccc(OC(F)F)cc1F)=C2c1ccc(O[C@H]2CCN(CCCF)C2)cc1 [Example 213]             8.40
8  Oc1ccc2c(c1)SCCC(c1ccc3c(c1)OC(F)(F)O3)=C2c1ccc(O[C@H]2CCN(CCCF)C2)cc1 [Example 193]             9.00

Dear reader, for each entry below, please note its pIC50.
1. Oc1ccc2c(c1)CCCC(c1ccc(SC(F)(F)F)cc1)=C2c1ccc(N[C@H]2CCN(CCCF)C2)cc1 [Example 90]
2. Oc1ccc2c(c1)SCC(c1ccc(F)nc1F)=C2c1ccc(O[C@H]2CCN(CCCF)C2)cc1 [Example 49]
3. Oc1ccc2c(c1)SCCC(c1ccc(OCF)cc1)=C2c1ccc(O[C@H]2CCN(CCCF)C2)cc1 [Example 218]
4. CC(C)(C)c1ccc(C2=C(c3ccc(N[C@H]4CCN(CCCF)C4)cc3)c3ccc(O)cc3CCC2)cc1 [Example 89]

1: 7.92; 2: 7.43; 3: 9.00; 4: 7.57
